Value source: patent US20030068675

Molecular target: T1, ZFP SBS#494 (synthetic)
T1 chain: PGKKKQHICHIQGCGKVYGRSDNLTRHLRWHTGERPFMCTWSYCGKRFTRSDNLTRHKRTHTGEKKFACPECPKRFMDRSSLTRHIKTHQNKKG
Experiment: EMSA
Conditions: tags: MBP fusion
pKd: −log10 of the molar value.

binder	pKd
GCCGAGGAGA (dsDNA) DNA 1: GCCGAGGAGA DNA 2: TCTCCTCGGC	7.05
